B1: Osa-1-4 twister ribozyme (parent)
chain: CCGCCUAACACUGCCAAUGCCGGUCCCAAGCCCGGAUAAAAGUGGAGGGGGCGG

Variants of: B1
Assay: self-cleavage, relative activity (ratio to wild type); higher = more cleavage; co-transcriptional
Answer not satisfied if self-cleavage is under 0.06, and satisfied if it is 0.06 or more.

C14G G45A :: not satisfied
A16G G54U :: satisfied
A46U C20U :: satisfied
A17U A36U :: satisfied
C21A G49A :: satisfied
A16C C11U :: satisfied
A36C G45A :: satisfied
A28C C32G :: satisfied

Incoming: # check: self-cleavage of A8U G47C is greater than or equal to 0.06
Outgoing: not satisfied

Incoming: Hi team, for C32A G13A , is the recorded self-cleavage at or above 0.06?
Outgoing: not satisfied

Incoming: Given A17G A39U , state whether its self-cleavage is at least 0.06.
Outgoing: satisfied
